src = patent US20230047413A1

Molecular target: T1, PHF-tau (paired helical filament tau isolated from Alzheimer's disease brain) (human, UniProt P10636-8 2-441, limits assumed, hyper-phosphorylated, aggregated; sites not listed for the preparation)
T1 construct: also called enriched PHF-tau; ePHF-tau
T1 sequence (P10636 other isoform, or with tags, fused parts or gaps limits assumed): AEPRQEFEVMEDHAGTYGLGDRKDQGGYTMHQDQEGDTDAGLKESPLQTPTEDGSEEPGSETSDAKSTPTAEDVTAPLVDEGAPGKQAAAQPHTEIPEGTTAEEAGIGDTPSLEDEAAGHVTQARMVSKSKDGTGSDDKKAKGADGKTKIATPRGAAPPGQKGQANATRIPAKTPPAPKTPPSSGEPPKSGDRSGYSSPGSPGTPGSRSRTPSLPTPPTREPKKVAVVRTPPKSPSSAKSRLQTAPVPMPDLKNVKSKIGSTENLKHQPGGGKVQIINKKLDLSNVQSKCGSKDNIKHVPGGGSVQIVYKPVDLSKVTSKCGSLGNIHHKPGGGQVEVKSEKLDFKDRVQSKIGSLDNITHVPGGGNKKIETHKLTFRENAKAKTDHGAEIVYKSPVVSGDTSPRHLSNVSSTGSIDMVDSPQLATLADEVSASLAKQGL
Assay: SPR ProteOn, PHF-tau capture-coupled via HT7, 1:1 model
pKd: −log10 of the molar value.
assay_endpoint: pKd

>>> endpoint_value("B331 (Fab of B333) (Fab, V domains shown) VH: QVQLVESGGGVVQPGRSLRLSCAASGFTFSSYAMSWVRQAPGKGLEWVASISKGGNTYYADSVKGRFTISRDNSKNTLYLQMNSLRAEDTAVYYCARGWGDYGWFAYWGQVTLVTVSS VL: DIQMTQSPSSLSASVGDRVTITCKASQDINRWLNWFQQKPGKAPKSLIYRANRLLDGVPSRFSGSGSGTDFTLTISSLQPEDFATYYCLQYDEFPLTFGQGTKLEIK")
10.51
